MEASURED ON: elastase
ASSAY NOTES: Elastase-inhibitory activity
pIC50: −log10 of the molar value.

[
  {
    "COMPOUND": "CCOC(=O)N1CSCC1C(=O)O (stereo not shown) [YS 795]",
    "pIC50": 1.96
  }
]

---

ASSAY NOTES: Acute toxicity (LD50, Litchfield and Wilcoxon) in the mouse
CONDITION: in vivo, ip, female, read-out: DL50 (the source's name)

[
  {
    "MOLECULE": "CCOC(=O)N1CSCC1C(=O)O (stereo not shown) [YS 795]",
    "LD50 / mg/kg": 372
  }
]

// data source = patent US4874776A
